Numbers sourced from BindingDB's records for PubMed 2795135.

target: 5-hydroxytryptamine receptor 2A (Rattus norvegicus)
Listed next: entries and their corresponding pKi.
The quantity pKi is defined as the negative base-10 logarithm of the molar concentration.

- MOLECULE: "COc1cc(CCN)cc(OC)c1OC [3,4,5-trimethoxyphenylethylamine]"
  OBSERVED: 6.82
- MOLECULE: "Clc1cccc(N2CCNCC2)c1 [mCPP]"
  OBSERVED: 7.68
- MOLECULE: "CN(C)CCc1c[nH]c2ccccc12 [2-(1H-indol-3-yl)-N,N-dimethylethanamine]"
  OBSERVED: 7.38

Challenge: Return pKi measured with 5-hydroxytryptamine receptor 2A (Rattus norvegicus) given this molecule: COc1ccc2[nH]cc(CCN(C)C)c2c1 [3-(2-DIMETHYLAMINOETHYL)-5-METHOXYINDOLE]
Response given: 7.85

Challenge: Try CCCN(CCC)C1CCc2cccc(O)c2C1 (stereo not given) next.
Response given: 6.15

----------
molecular target: 5-hydroxytryptamine receptor 2B (Bos taurus, UniProt Q8MI09)
Sequence (Q8MI09 whole entry): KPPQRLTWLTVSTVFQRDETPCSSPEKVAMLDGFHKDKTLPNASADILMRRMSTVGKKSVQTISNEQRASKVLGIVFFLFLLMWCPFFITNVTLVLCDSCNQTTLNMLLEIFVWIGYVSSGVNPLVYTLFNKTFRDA
Lab note: cut-off is 500 nM. Strictly less in Ki is 1 (yes). Exactly 500 nM or more is 0 (no).

Solved entries:
- COMPOUND: "c1ccc2nc(N3CCNCC3)ccc2c1"
  LABEL_CLASS: "1 (yes)"
- COMPOUND: "COc1cc(CCN)cc(OC)c1OC"
  LABEL_CLASS: "0 (no)"
- COMPOUND: "CN(C)CCc1c[nH]c2cccc(OP(=O)(O)O)c12"
  LABEL_CLASS: "0 (no)"
- COMPOUND: "Clc1cccc(N2CCNCC2)c1"
  LABEL_CLASS: "0 (no)"
- COMPOUND: "CN1C2CCC1CC(OC(=O)c1c[nH]c3ccccc13)C2 (stereo not drawn)"
  LABEL_CLASS: "0 (no)"

--- query ---
Challenge: Please state whether Ki is below 500 nM for "CN1C[C@@H](NS(=O)(=O)N(C)C)C[C@@H]2c3cccc4c3c(cn4C)C[C@H]21"
Response given: 1 (yes)

----------
target: 5-hydroxytryptamine receptor 2A (Rattus norvegicus, UniProt P14842)
Sequence (P14842 whole entry): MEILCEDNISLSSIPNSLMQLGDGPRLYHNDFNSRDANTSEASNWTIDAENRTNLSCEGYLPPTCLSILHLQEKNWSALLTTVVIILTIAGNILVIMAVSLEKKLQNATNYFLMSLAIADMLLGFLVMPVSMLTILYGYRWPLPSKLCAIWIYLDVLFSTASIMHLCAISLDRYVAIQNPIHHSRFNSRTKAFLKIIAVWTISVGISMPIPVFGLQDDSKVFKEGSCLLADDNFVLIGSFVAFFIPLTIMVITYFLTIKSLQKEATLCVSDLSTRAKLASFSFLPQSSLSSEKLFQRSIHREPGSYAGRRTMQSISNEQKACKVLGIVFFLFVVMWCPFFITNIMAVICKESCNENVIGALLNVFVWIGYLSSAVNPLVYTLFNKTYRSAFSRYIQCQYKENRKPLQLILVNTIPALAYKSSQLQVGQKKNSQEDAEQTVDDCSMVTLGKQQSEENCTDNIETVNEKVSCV
Listed next: entries and their corresponding Ki.
I only need the number, in nM, no unit after it.

Completed entries (count: 4):
- MOLECULE: "COc1cc(CC(C)N)c(OC)cc1C (stereo not given)"
  MEASURED_PROPERTY: "Ki"
  UNIT_DESCRIPTOR: "nM"
  OBSERVED: 4.8
- MOLECULE: "CN(C)CCc1c[nH]c2cccc(OP(=O)(O)O)c12 [psilocybin]"
  MEASURED_PROPERTY: "Ki"
  UNIT_DESCRIPTOR: "nM"
  OBSERVED: 13
- MOLECULE: "c1ccc2nc(N3CCNCC3)ccc2c1 [2-Piperazin-1-yl-quinoline (Quipazine)]"
  MEASURED_PROPERTY: "Ki"
  UNIT_DESCRIPTOR: "nM"
  OBSERVED: 5
- MOLECULE: "NCCc1c[nH]c2ccccc12 [1H-indole-3-ethanamine]"
  MEASURED_PROPERTY: "Ki"
  UNIT_DESCRIPTOR: "nM"
  OBSERVED: 11

Query molecule follows.
Challenge: Return Ki measured with 5-hydroxytryptamine receptor 2A (Rattus norvegicus, UniProt P14842) given this molecule: CN(C)CCc1c[nH]c2cccc(O)c12 [4-hydroxy-N,N-dimethyltryptamine]
Response given: 12

----------
// Ki collected for 5-hydroxytryptamine receptor 2B (Bos taurus)
I only need the number, in nM, no unit after it.

- MOLECULE: "CCCN(CCC)C1CCc2cccc(O)c2C1 (configuration not stated)"
  TESTED_ON: "5-hydroxytryptamine receptor 2B (Bos taurus)"
  UNIT_DESCRIPTOR: "nM"
  Ki: 5400
- MOLECULE: "CCc1cc(OC)c(CC(C)N)cc1OC (configuration not stated)"
  TESTED_ON: "5-hydroxytryptamine receptor 2B (Bos taurus)"
  UNIT_DESCRIPTOR: "nM"
  Ki: 80
- MOLECULE: "CCN(CC)C(=O)[C@@H]1C=C2c3cccc4[nH]cc(c34)C[C@H]2N(C)C1"
  TESTED_ON: "5-hydroxytryptamine receptor 2B (Bos taurus)"
  UNIT_DESCRIPTOR: "nM"
  Ki: 11
- MOLECULE: "COc1cc(CC(C)N)c(OC)cc1C (configuration not stated)"
  TESTED_ON: "5-hydroxytryptamine receptor 2B (Bos taurus)"
  UNIT_DESCRIPTOR: "nM"
  Ki: 400
- MOLECULE: "CN(C)CCc1c[nH]c2cccc(O)c12 [4-hydroxy-N,N-dimethyltryptamine]"
  TESTED_ON: "5-hydroxytryptamine receptor 2B (Bos taurus)"
  UNIT_DESCRIPTOR: "nM"
  Ki: 450
- MOLECULE: "COc1ccc2[nH]cc(C3=CCNCC3)c2c1"
  TESTED_ON: "5-hydroxytryptamine receptor 2B (Bos taurus)"
  UNIT_DESCRIPTOR: "nM"
  Ki: 1200

Challenge: Ki lookup needed for "COc1ccc2[nH]cc(CCN(C)C)c2c1" , thanks.
Response given: 1300

Challenge: Try "CN(C)CCCN1c2ccccc2Sc2ccc(Cl)cc21" next.
Response given: 6

Challenge: Try "O=C(c1ccc(F)cc1)C1CCN(CCn2c(=O)[nH]c3ccccc3c2=O)CC1" next.
Response given: 2.4

Challenge: Try "CN(C)CCc1c[nH]c2ccccc12" next.
Response given: 550

Challenge: Try "NCCc1c[nH]c2ccccc12" next.
Response given: 1300
